system: Tel22 (DNA, G4) AGGGTTAGGGTTAGGGTTAGGG; assay: UV thermal melting, 295 nm; conditions: 50 mM KCl; 10 mM TRIS, 3 mM EDTA, pH 7.3; drug:DNA 6:1
experimental.readout: ∆Tm (°C)

Check out these entries, answers already filled in.
- item.smiles: "CC1(C)C(/C=C/C=C2/N(CCC[N+](C)(C)C)c3ccc(I)cc3C2(C)C)=[N+](CCC[N+](C)(C)C)c2ccc(I)cc21"
  study.system: "Tel22 (DNA, G4) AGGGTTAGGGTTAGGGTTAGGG"
  measured: 21
- item.smiles: "CC1(C)C(/C=C/C=C2/N(CCC[N+](C)(C)C)c3ccccc3C2(C)C)=[N+](CCC[N+](C)(C)C)c2ccccc21"
  study.system: "Tel22 (DNA, G4) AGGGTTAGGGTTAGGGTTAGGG"
  measured: 14

A = CC1(C)C(/C=C/C=C2/N(CCC[N+](C)(C)C)c3ccc(Cl)cc3C2(C)C)=[N+](CCC[N+](C)(C)C)c2ccc(Cl)cc21
B = CC1(C)C(/C=C/C=C2/N(CCCc3ccccc3)c3ccccc3C2(C)C)=[N+](CCCc2ccccc2)c2ccccc21
C = CC1(C)C(/C=C/C=C2/N(CCC[N+](C)(C)C)c3ccc(S(=O)(=O)O)cc3C2(C)C)=[N+](CCC[N+](C)(C)C)c2ccc(S(=O)(=O)O)cc21
D = CCCCN1/C(=C/C=C/C2=[N+](CCCC)c3ccccc3C2(C)C)C(C)(C)c2ccccc21
q: Given 4 compounds, produce a descending ranking by ∆Tm. API: response body holds the labels in the requested order.
a: A, B, C, D
(A: 19 °C, B: 11 °C, C: 1 °C, D: 0 °C)
